So I've got a bunch of binders here, and I need their log10 of Kd values.
# subjectOfTest: von Willebrand factor A1 domain (Homo sapiens, UniProt P04275 SEQ:13-246)
# Sequence (P04275 1238-1471 T1381A): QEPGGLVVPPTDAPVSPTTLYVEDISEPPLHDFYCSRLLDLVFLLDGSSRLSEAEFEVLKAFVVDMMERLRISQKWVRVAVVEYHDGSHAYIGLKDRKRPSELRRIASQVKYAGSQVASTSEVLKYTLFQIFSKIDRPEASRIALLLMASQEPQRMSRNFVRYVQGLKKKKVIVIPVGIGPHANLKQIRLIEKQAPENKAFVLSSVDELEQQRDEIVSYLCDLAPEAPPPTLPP
# methodDescription: filter; DPBS, 0.1 mg/mL BSA, 24 C
# experimentalContext: label: 5'-32P
# Procedure: Based on this initial screen, KDs were determined for 12 of the best vWF dependent binding sequences using the dot blot assay and are reported in column 5 of Table 4 below.
In plain terms, each number is the log10 of measured Kd in nM.

In: Please look up its log10 of Kd: AMX198.C10 (ssRNA, 2'-F pyrimidines) RNA: GGAGCGCACUCAGCCACUGGUCCUUAGCUAGUUGUACUAGCGACGCGUUCAGGUGGUUUCGACCUCUCUGCUAGC
Out: 2.74

In: Similarly, AMX201.B1 (ssRNA, 2'-F pyrimidines) RNA: GGAGCGCACUCAGCCACAGAGCCCUGAGUGUAUGAUCGCCUAGAUCUAUCGAUGCUUUUUCGACCUCUCUGCUAGC ?
Out: 1.28

In: Similarly, AMX201.C8 (ARC840) (ssRNA, 2'-F pyrimidines) RNA: GGAGCGCACUCAGCCACCCUCGCAAGCAUUUUAAGAAUGACUUGUGCCGCUGGCUGUUUUCGACCUCUCUGCUAGC ?
Out: -0.70

In: Similarly, AMX198.C6 (ssRNA, 2'-F pyrimidines) RNA: GGAGCGCACUCAGCCACGGUGGUCAGUCAGUGAUAUGAUUAAGUUCAGCUGUGGCUGUUUCGACCUCUCUGCUAGC ?
Out: 2.40

In: Similarly, AMX198.E11 (ssRNA, 2'-F pyrimidines) RNA: GGAGCGCACUCAGCCACGGUAACAUUGUUUCCGGCGAUUCUUUGAACGCCGUCGUGGUUUCGACCUCUCUGCUAGC ?
Out: 3.03
